Each recorded value in this set is attributed to patent US9487462B2.

The following compounds are shown together with reported IC50 values.
assaySystem: MMP13 (Homo sapiens (Human), UniProt P45452)
protocolDetails: MMP activity assay (fluorogenic substrate), MMP13 catalytic domain
Assay type: biochemical
recordedConditions: Table 2; read-out: MMP13 IC50
Counter-ions that a name gives are not always drawn.
measuredProperty: IC50

compound	assaySystem	result
CCOC(=O)c1csc(CN(Cc2ccncc2)Cc2ccc(OCc3ccccc3)cc2)n1	MMP13 (Homo sapiens (Human), UniProt P45452)	7.5 µM
O=C(O)c1c[nH]c(CNCc2ccc(OCc3cccnc3)cc2)n1	MMP13 (Homo sapiens (Human), UniProt P45452)	10 µM
O=C(O)c1csc(CN(Cc2ccccc2)Cc2ccccc2)n1	MMP13 (Homo sapiens (Human), UniProt P45452)	3.2 µM
FC(F)(F)c1cnc(-c2ccccc2)[nH]1	MMP13 (Homo sapiens (Human), UniProt P45452)	340 µM
O=C(O)c1csc(CN(Cc2ccc(F)cc2)Cc2ccc(OCc3ccccc3)cc2)n1 [ALBH-known, reference compound]	MMP13 (Homo sapiens (Human), UniProt P45452)	1.62 µM
O=C(O)c1csc(CN(Cc2ccc(F)cc2)Cc2ccc(OCc3cccnc3)cc2)n1	MMP13 (Homo sapiens (Human), UniProt P45452)	2.5 µM
O=C(O)c1c[nH]c(CN(Cc2ccc(F)cc2)Cc2ccc(OCc3ccccc3)cc2)n1 [Compound 30 HCl]	MMP13 (Homo sapiens (Human), UniProt P45452)	3.3 µM
FC(F)(F)c1cnc(CCc2ccccc2)[nH]1	MMP13 (Homo sapiens (Human), UniProt P45452)	500 µM

====

pIC50: −log10 of the molar value. Counter-ions that a name gives are not always drawn.
Reported pIC50 values, MMP9 (Homo sapiens, UniProt P14780).

molecule	assaySystem	valueComparator	pIC50
FC(F)(F)c1cnc(CCc2ccccc2)[nH]1 [Compound 35]	MMP9 (Homo sapiens, UniProt P14780)	<	3.30
O=C(O)c1c[nH]c(CN(Cc2ccc(F)cc2)Cc2ccc(OCc3ccccc3)cc2)n1 [Compound 30 HCl]	MMP9 (Homo sapiens, UniProt P14780)	=	4.00
CCOC(=O)c1csc(CN(Cc2ccc(F)cc2)Cc2ccc(-c3ccccc3)cc2)n1 [Compound 32]	MMP9 (Homo sapiens, UniProt P14780)	=	3.70

====

assaySystem: MMP1 (Homo sapiens (Human), UniProt P03956)
Sequence (P03956 100-469, species assumed): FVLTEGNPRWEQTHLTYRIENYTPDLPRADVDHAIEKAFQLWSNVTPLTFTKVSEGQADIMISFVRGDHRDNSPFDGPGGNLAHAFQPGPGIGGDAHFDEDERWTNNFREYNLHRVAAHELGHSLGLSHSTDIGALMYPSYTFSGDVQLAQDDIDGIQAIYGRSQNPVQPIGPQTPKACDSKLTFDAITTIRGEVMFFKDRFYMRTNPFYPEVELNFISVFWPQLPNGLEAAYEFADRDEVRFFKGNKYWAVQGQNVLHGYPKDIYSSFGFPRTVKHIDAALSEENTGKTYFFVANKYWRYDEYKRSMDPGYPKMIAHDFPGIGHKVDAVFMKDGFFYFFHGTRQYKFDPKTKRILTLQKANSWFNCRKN
protocolDetails: MMP activity assay (fluorogenic substrate), MMP1
Format: biochemical
recordedConditions: read-out: IC50 on MMP1
pIC50: −log10 of the molar value.
measuredProperty: pIC50

compoundStructure	numericReadout
O=C(O)c1csc(CN(Cc2ccc(F)cc2)Cc2ccc(OCc3cccnc3)cc2)n1	4.34

====

pIC50: −log10 of the molar value.
Reported pIC50 values, UniProt P14780.
measuredProperty: pIC50

molecule	assaySystem	valueComparator	numericReadout
CCOC(=O)c1csc(CN(Cc2ccncc2)Cc2ccc(OCc3ccccc3)cc2)n1	UniProt P14780	<	3.30
O=C(O)c1c[nH]c(CN(Cc2ccc(F)cc2)Cc2ccc(OCc3ccccc3)cc2)n1 [Compound 30]	UniProt P14780	=	4.89
O=C(O)c1cnc(-c2ccccc2)[nH]1	UniProt P14780	=	3.60
O=C(O)c1csc(CN(Cc2ccc(F)cc2)Cc2ccc(OCc3ccncc3)cc2)n1	UniProt P14780	=	5.06

====

protocolDetails: Cytotoxicity, alamarBlue viability, HCT116
Format: cell-based
recordedConditions: human, HCT116 colon tumor cells, 48 hours incubation, read-out: HCT116 LC50
measuredProperty: CC50 at 48 h (µM)

molecule	numericReadout
O=C(O)c1csc(CN(Cc2ccc(F)cc2)Cc2ccc(OCc3ccncc3)cc2)n1 [Compound 9]	4.7
O=C(O)c1csc(CN(Cc2ccc(OCc3ccncc3)cc2)Cc2cccnc2)n1 [Compound 12]	37
O=C(O)c1csc(CN(Cc2ccncc2)Cc2ccc(OCc3ccccc3)cc2)n1 [Compound 13]	20
O=C(O)c1c[nH]c(CN(Cc2ccc(F)cc2)Cc2ccc(OC(c3ccccc3)c3ccccc3)cc2)n1 [Compound 22]	0.7
CCOC(=O)c1csc(CN(Cc2ccc(F)cc2)Cc2ccc(-c3ccccc3)cc2)n1 [Compound 32]	0.7
O=C(O)c1c[nH]c(CNCc2ccc(OCc3cccnc3)cc2)n1 [Compound 31]	70
CCOC(=O)c1csc(CN(Cc2ccc(F)cc2)Cc2ccc(OCc3ccccc3)cc2)n1 [Compound 11]	5.8
O=C(O)c1csc(CN(Cc2ccc(OCc3ccccc3)cc2)Cc2cccnc2)n1 [Compound 14]	19
O=C(O)c1csc(CN(Cc2ccc(OCc3ccccc3)cc2)CC(c2ccccc2)c2ccccc2)n1 [Compound 6]	3.5
O=C(O)c1csc(CN(Cc2ccc(F)cc2)Cc2ccc(OCc3ccccc3)cc2)n1 [ALBH-known, reference compound]	3.5
CCOC(=O)c1csc(CN(Cc2ccc(F)cc2)Cc2ccc(OCc3ccncc3)cc2)n1 [Compound 18]	0.04
O=C(O)c1csc(CN(Cc2ccc(OCc3cccnc3)cc2)Cc2cccnc2)n1 [Compound 10]	20
O=C(O)c1c[nH]c(CN(Cc2ccc(F)cc2)Cc2ccc(OCc3ccccc3)cc2)n1 [Compound 30]	6
CCOC(=O)c1csc(CN(Cc2ccc(F)cc2)Cc2ccc(OCc3cccnc3)cc2)n1 [Compound 2]	0.5
O=C(O)c1csc(CN(Cc2ccc(OCc3ccccc3)cc2)Cc2cccc(F)c2)n1 [Compound 5]	3.5
Cn1cc(C(F)(F)F)nc1CN(Cc1ccc(F)cc1)Cc1ccc(OCc2ccccc2)cc1 [Compound 26]	25
CCOC(=O)c1csc(CN(Cc2ccc(OCc3ccncc3)cc2)Cc2cccnc2)n1 [Compound 19]	7.3
